Data origin: patent US20190062305A1

- tgt: 5-HT2C receptor (Homo sapiens)
- Construct: host or cells: U2OS
- Sequence (P28335 33-458): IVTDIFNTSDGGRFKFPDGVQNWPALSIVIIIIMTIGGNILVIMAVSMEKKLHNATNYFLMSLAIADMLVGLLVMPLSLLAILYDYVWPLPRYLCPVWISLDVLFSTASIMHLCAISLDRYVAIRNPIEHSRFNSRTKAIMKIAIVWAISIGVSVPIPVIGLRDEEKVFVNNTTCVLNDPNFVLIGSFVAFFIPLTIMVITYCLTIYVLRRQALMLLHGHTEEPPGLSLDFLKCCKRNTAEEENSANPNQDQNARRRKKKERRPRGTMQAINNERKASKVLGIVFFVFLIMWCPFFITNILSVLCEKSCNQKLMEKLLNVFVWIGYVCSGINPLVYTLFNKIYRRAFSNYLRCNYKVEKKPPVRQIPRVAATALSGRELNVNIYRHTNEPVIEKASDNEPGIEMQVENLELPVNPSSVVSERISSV
- Sequence (P32121 whole entry partner): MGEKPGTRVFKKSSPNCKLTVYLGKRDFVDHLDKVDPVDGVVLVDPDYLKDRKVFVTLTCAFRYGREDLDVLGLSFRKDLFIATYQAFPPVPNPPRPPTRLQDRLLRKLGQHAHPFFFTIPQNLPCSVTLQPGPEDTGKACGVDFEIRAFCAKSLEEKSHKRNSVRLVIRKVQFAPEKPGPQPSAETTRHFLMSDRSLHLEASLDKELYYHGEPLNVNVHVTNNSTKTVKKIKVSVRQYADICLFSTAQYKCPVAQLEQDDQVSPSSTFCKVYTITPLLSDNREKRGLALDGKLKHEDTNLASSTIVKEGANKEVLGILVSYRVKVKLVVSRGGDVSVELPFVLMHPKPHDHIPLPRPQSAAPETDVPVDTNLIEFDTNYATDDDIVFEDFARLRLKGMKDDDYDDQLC
- protocol: Human 5-HT2C functional assay (beta-arrestin2 recruitment, U2OS_HTR2C_β-Arrestin cells)
- Assay type: cell-based
- recorded conditions: beta-arrestin2 recruitment, U2OS_HTR2C_β-Arrestin cells, 1.5 h incubation; read-out: EC50 5-HT2C (potency in functional assay)
- Description: The functional activity of compounds of formula I was assayed by incubation with U2OS_HTR2C_β-Arrestin cells (DiscoverX, 93-0289C3) to induce beta-arrestin2 recruitment to the 5-HT2C receptor. […] The enzyme complementation results in enzyme activity, which is measured following the termination of the agonist incubation using DiscoveRx's detection reagent, which contains a chemiluminescent substrate which produces a high intensity signal. […]
Where a name gives a salt, the structure may show the parent alone.
Provide the recorded EC50 for the entries that follow.

Here's what some known entries look like.
- compound: "COc1nc(C2CC2)c(F)cc1CNC(=O)[C@@H]1CCCN1"
  EC50: "200 to 1000 nM"
- compound: "COc1nc(C(F)(F)Cc2ccccc2)c(F)cc1CN(C)C(=O)[C@@H]1CCCN1 [Example 191, Hydrochloride]"
  EC50: "200 to 1000 nM"
- compound: "COc1nc(OC2CC(F)(F)C2)c(F)cc1CN(C)C(=O)[C@@H]1CCCN1C [Example 99, Hydrochloride]"
  EC50: "20 to 200 nM"

Record COc1nc(OC2CCC(F)(F)CC2)c(F)cc1CNC(=O)[C@@H]1C[C@@H](C)CN1C [Example 61, Hydrochloride] . Reported EC50: 20 to 200 nM
